# TARGET SYSTEM: SaCSE H339A mutant (Staphylococcus aureus, UniProt X5E0F1, H339A)
# ASSAY REMARKS: H2S generating activity of SaCSE H339A mutant
# PARTICULARS: read-out: IC50 for SaCSE H339A mutant; mean ± SE, n=2
pIC50: −log10 of the molar value.
List of pIC50 values.
MEASURED METRIC: pIC50

MOLECULE: O=C(O)c1cc(Cn2ccc3ccc(-c4cc5cccc(Cl)c5s4)cc32)[nH]n1 [NL3]
MEASURED METRIC: pIC50
VALUE OBSERVED: 5.77

MOLECULE: Cc1oc(Cn2ccc3ccc(Br)cc32)cc1C(=O)O [NL2]
MEASURED METRIC: pIC50
VALUE OBSERVED: 3.81

====

# TARGET SYSTEM: S. aureus CSE (SaCSE) (Staphylococcus aureus)
# ASSAY REMARKS: H2S production enzymatic assay, SaCSE
# Format: biochemical
# PARTICULARS: read-out: IC50 for SaCSE; L-cysteine at 100 μM
pIC50: −log10 of the molar value.
MEASURED METRIC: pIC50

TEST SMILES: O=C(O)c1cc(Cn2ccc3ccc(-c4cc5cccc(Cl)c5s4)cc32)[nH]n1
VALUE OBSERVED: 6.15
